Could you please report measured IC50 for the items listed next?
tested on: PC-3; experiment: Cytotoxicity against human PC-3 cells after 48 hrs by MTT assay; assay type: functional, cell-based; conditions: PC-3, 48 h
Where a name gives a salt, the structure may show the parent alone.
Numbers only, in µM.

Hi team, please reply with IC50 for each item in this list.
1. COc1cccc2c1C(=O)c1c(O)c3c(c(O)c1C2=O)C[C@@](O)(C(C)=O)C[C@@H]3O[C@H]1C[C@H](N)[C@H](O)[C@H](C)O1 [DAUNORUBICIN HYDROCHLORIDE]
2. C=C1C(=O)O[C@@H]2C[C@@H]3[C@]4(CC[C@]5(C)[C@@H]([C@H](C)CC(=O)C=C(C)C)CC[C@@]35C)C[C@]4(CCC(=O)OC)[C@H]12 [SECAUBRYOLIDE]

[0.44, 35]

###

tested on: MDA-MB-231; assay: Cytotoxicity against human MDA-MB-231 cells after 48 hrs by MTT assay; type: functional, cell-based; conditions: MDA-MB-231, 48 h
Where a name gives a salt, the structure may show the parent alone.
measurementKind: pIC50
Answers are plain numbers, as −log10 of the molar value.

• COc1cccc2c1C(=O)c1c(O)c3c(c(O)c1C2=O)C[C@@](O)(C(C)=O)C[C@@H]3O[C@H]1C[C@H](N)[C@H](O)[C@H](C)O1 [DAUNORUBICIN HYDROCHLORIDE] = 6.60

Now look at this entry.
Please report the recorded pIC50 for C=C1C(=O)O[C@@H]2C[C@@H]3[C@]4(CC[C@]5(C)[C@@H]([C@H](C)CC(=O)C=C(C)C)CC[C@@]35C)C[C@]4(CCC(=O)OC)[C@H]12 [SECAUBRYOLIDE] .
4.68

###

tested on: MCF7; test: Cytotoxicity against human MCF7 cells after 48 hrs by MTT assay; assay type: functional, cell-based; details: MCF7, 48 h
Structures can show the parent of a compound that is named as a salt.
measurementKind: IC50

Recorded results for 3 compounds are shown here.
* C=C1C(=O)O[C@@H]2C[C@@H]3[C@]4(CC[C@]5(C)[C@@H]([C@H](C)CC(=O)C=C(C)C)CC[C@@]35C)C[C@]4(CCC(=O)OC)[C@H]12 [SECAUBRYOLIDE] | 52 µM
* C=C(CO)[C@@H]1CC[C@H]2[C@]3(CC[C@]4(C)[C@@H]([C@H](C)CCC=C(C)C)CC[C@@]24C)C[C@]13CCC(=O)O | > 100 µM
* COc1cccc2c1C(=O)c1c(O)c3c(c(O)c1C2=O)C[C@@](O)(C(C)=O)C[C@@H]3O[C@H]1C[C@H](N)[C@H](O)[C@H](C)O1 [DAUNORUBICIN HYDROCHLORIDE] | 0.22 µM

Field: next compound
Entry C=C(CO)[C@@H]1CC[C@H]2[C@]3(CC[C@]4(C)[C@@H]([C@H](C)CC[C@@H](O)C(C)(C)O)CC[C@@]24C)C[C@]13CCC(=O)O , system MCF7: what IC50 was measured?
> 100 µM

###

system: HeLa; assay: Cytotoxicity against human HeLa cells after 48 hrs by MTT assay; type: functional, cell-based
Where a name gives a salt, the structure may show the parent alone.
Field: pIC50. Provide a value for each of the compounds that follow.
Answers are plain numbers, as −log10 of the molar value.

- C=C1C(=O)O[C@@H]2C[C@@H]3[C@]4(CC[C@]5(C)[C@@H]([C@H](C)CC(=O)C=C(C)C)CC[C@@]35C)C[C@]4(CCC(=O)OC)[C@H]12 [SECAUBRYOLIDE]: 4.40

Consider now this further compound.
Report pIC50 for COc1cccc2c1C(=O)c1c(O)c3c(c(O)c1C2=O)C[C@@](O)(C(C)=O)C[C@@H]3O[C@H]1C[C@H](N)[C@H](O)[C@H](C)O1 [DAUNORUBICIN HYDROCHLORIDE] tested on HeLa.
6.49

Where do the numbers come from? From ChEMBL document CHEMBL1158125.
